# measurement_target: human M2 receptor (Homo sapiens)
# Sequence (P08172 1-466): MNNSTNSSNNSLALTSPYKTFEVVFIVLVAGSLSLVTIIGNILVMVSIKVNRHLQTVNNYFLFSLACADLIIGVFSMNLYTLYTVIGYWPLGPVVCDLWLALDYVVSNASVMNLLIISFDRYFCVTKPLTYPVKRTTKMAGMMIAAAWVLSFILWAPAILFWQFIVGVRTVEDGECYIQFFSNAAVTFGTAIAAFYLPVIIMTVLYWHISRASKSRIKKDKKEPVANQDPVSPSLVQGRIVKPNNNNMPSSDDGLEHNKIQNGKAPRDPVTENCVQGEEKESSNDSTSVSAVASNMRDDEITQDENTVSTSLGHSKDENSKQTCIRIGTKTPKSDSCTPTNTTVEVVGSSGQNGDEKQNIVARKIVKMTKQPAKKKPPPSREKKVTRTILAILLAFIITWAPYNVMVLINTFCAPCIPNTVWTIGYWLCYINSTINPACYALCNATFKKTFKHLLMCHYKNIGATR
# assay_context: Receptor activity EC50, M2-GIRK1/4 activation test, acetylcholine at EC20; allosteric potency; in some cases mean values from two or more determinations
Provide the recorded pEC50 for the entries that follow.
Answers are plain numbers, as −log10 of the molar value.

The cases that follow already have their pEC50 on record.
CC(C)C[C@H](NC(=O)c1cn(-c2ccc(F)cc2F)c2nc(N(C)C)ccc2c1=O)C(F)(F)F; 7.80
CC[C@@H](NC(=O)c1cn(-c2ccc(F)cc2F)c2nc(N3CC4CNC(=O)C4C3)ccc2c1=O)C(F)(F)F (single isomer, unassigned) [Example 223]; 7.08
CC(NC(=O)c1cn(-c2ccc(F)cc2F)c2nc(N3C[C@@H](O)CC3=O)ccc2c1=O)c1c(F)cccc1F (single isomer, unassigned) [Example 215]; 6.75

I'm hoping you can list pEC50 for every compound here, please.
1. CN(C)c1ccc2c(=O)c(C(=O)NC34CC5CC(CC(F)(C5)C3)C4)cn(-c3ccc(F)cc3F)c2n1
2. CC(C)C(NC(=O)c1cn(-c2ccc(F)cc2F)c2nc(N(C)CCF)ccc2c1=O)C(F)(F)F (stereo not shown)
3. O=C(NC12CC3CC(CC(C3)C1)C2)c1cn(-c2ccc(F)cc2F)c2nc(N3C[C@@H](O)CC3=O)ccc2c1=O

7.64
7.62
7.72

I'm hoping you can list pEC50 for every compound here, please.
1. O=C(N[C@@H](C1CC1)C(F)(F)F)c1cn(-c2c(F)cccc2F)c2nc(N3C[C@@H](O)CC3=O)ccc2c1=O (single isomer, unassigned)
2. COC(=O)N1CCN(c2ccc3c(=O)c(C(=O)Nc4c(Cl)cccc4Cl)cn(-c4ccc(F)cc4F)c3n2)CC1
3. O=C(NC12CCC(F)(CC1)CC2)c1cn(-c2ccc(F)cc2F)c2nc(N3CC[C@H](F)C3)ccc2c1=O
4. CN(CCF)c1ccc2c(=O)c(C(=O)NC34CC5CC(CC(F)(C5)C3)C4)cn(-c3ccc(F)cc3F)c2n1

7.43
7.51
7.40
7.51

###

# measurement_target: human M2 receptor (Homo sapiens, UniProt P08172)
# Sequence (P08172 1-466): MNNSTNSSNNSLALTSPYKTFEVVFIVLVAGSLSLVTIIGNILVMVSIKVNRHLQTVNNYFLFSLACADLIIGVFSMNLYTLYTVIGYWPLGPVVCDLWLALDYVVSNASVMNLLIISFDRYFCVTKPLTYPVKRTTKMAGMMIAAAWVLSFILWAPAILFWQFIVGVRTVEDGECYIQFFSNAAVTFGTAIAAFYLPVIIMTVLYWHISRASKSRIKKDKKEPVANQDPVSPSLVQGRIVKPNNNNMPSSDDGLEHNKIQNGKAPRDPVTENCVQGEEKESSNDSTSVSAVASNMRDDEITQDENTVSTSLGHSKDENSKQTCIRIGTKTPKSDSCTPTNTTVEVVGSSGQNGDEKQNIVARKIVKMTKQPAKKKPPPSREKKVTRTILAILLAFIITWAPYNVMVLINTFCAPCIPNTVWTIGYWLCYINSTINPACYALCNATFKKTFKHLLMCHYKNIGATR
# assay_context: Receptor activity EC50, M2-GIRK1/4 activation test, acetylcholine at EC20; allosteric potency; in some cases mean values from two or more determinations
pEC50: −log10 of the molar value.
If the reported pEC50 equals or exceeds 7, assign 1. If not, assign 0.

Worked examples follow.
CC[C@@H](NC(=O)c1cn(-c2ccc(F)cc2F)c2nc(N3CCC(C)(OC)C3=O)ccc2c1=O)C(F)(F)F (single isomer, unassigned) [Example 199]; 0
CC(C)(C)[C@@H](NC(=O)c1cn(-c2c(F)cc(F)cc2F)c2nc(N3C[C@@H](O)[C@H](O)C3)ccc2c1=O)C(F)(F)F; 1
CC(C)CC(NC(=O)c1cn(-c2ccc(F)cc2F)c2nc(N3CC[C@H](F)C3)ccc2c1=O)C(F)(F)F (stereo partly shown); 1

Check this compound for pEC50 at or above 7: CC(COC(F)(F)F)NC(=O)c1cn(-c2ccc(F)cc2F)c2nc(N3CC[C@H](F)C3)ccc2c1=O (single isomer, unassigned) [Example 228]
1

Check this compound for pEC50 at or above 7: CC(C)(CC(F)(F)F)NC(=O)c1cn(-c2c(F)cc(F)cc2F)c2nc(N3CCN(CCO)C3=O)ccc2c1=O
1
